Where these numbers come from: PubChem BioAssay AID2130

Target: Protein phosphatase methylesterase 1 (Homo sapiens) (UniProt Q9Y570)
Sequence (Q9Y570 whole entry, looked up): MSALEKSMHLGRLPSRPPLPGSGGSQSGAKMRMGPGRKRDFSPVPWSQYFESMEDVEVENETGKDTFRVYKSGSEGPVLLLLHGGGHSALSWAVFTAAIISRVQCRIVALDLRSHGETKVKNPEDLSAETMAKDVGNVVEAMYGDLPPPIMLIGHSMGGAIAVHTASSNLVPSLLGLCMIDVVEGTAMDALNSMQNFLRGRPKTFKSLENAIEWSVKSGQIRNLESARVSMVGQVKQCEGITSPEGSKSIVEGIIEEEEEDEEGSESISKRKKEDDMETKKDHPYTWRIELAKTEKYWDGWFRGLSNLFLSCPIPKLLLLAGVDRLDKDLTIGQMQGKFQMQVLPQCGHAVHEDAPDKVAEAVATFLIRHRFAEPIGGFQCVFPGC
Experiment: PME-1 inhibitors via competitive probe labeling, primary screen, biochemical, fluorescence polarization, FP-Rh probe, HTS (AID 2130);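 further: competitive labeling of PME-1 active site by serine hydrolase directed probe; 0% = PME-1 with DMSO and 100% = wells lacking PME-1 enzyme; inhibitors block probe labeling so polarization falls and inhibition rises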
Conditions: recombinant PME-1, FP-Rh probe fluorescence polarization; at 5.9 µM; active compounds read high
About 1,700 (0.53%) of roughly 320,000 compounds were called active. Only a selection was taken, and actives are over-represented in it overall.
Readout: inhibition

May I ask what inhibition has been recorded for CCc1ccccc1OCC(=O)Nc1ccc(C)c(S(=O)(=O)N2CCCCCC2)c1 ? -30.7% (inactive)

May I ask what inhibition has been recorded for CCO[C@H]1OC(C(=O)N2CCN(Cc3ccccc3)CC2)=C[C@@H](c2cn(C(C)=O)c3ccccc23)[C@@H]1CCCO ? 10.4% (inactive)

May I ask what inhibition has been recorded for Cc1ccc(C2C3=C(Nc4[nH]n(-c5ccccc5)c(=O)c42)c2ccccc2C3=O)cc1 (configuration not stated) ? 36.4% (active)

May I ask what inhibition has been recorded for CCOc1cc(/C=N/NC(=O)c2cc(-c3ccccc3)nc3ccccc23)ccc1O ? -7.58% (inactive)

May I ask what inhibition has been recorded for Cc1cc(NC(=O)COc2ccccc2C#N)no1 ? -1.79% (inactive)

May I ask what inhibition has been recorded for CCCOc1ccc(CNC(=O)C2CCN(c3nn4c(=O)cc(C)nc4s3)CC2)cc1 ? -0.67% (inactive)

// each listed compound needs a value for inhibition
1. O=c1c2ccccc2nc(N/N=C/c2ccccc2)n1O
2. COc1cccc(/C=N/Nc2cc(C)nc(-c3ccccc3O)n2)c1O
3. Oc1ccc(/C=N/Nc2nc(-c3ccccc3F)nc3ccccc23)c(O)c1
4. Cc1cc(OCC(=O)NCC(O)c2ccccc2)c2c(C)c(C)c(=O)oc2c1 (configuration not stated)
5. CCOC(=O)c1ccc(NC(=O)c2cc(=O)[nH]c3ccccc23)cc1
6. CN(C)C(=O)c1ccc2c(c1)C1C3CCC(C3)C1C(c1ccccc1)N2 (configuration not stated)
7. COc1cc(/C=N/NC(=O)c2ccc(N3CCCC3=O)cc2)ccc1O

1. -3.42% (inactive)
2. 23.9% (inactive)
3. 55% (active)
4. 1.37% (inactive)
5. -7.83% (inactive)
6. 8.08% (inactive)
7. 5.91% (inactive)

// each listed compound needs a value for inhibition
1. CCOc1ccc(-c2cn(S(=O)(=O)c3cccc4nsnc34)nc2N)cc1
2. CCOC(=O)c1ccc(Nc2cc3ccccc3c(=O)[nH]2)cc1
3. O=C(Nc1ccnn1C1CCN(Cc2cccc(OCCO)c2)CC1)C1CCCC1
4. CONC(=O)c1cc(OCC(F)(F)F)ccc1OCC(F)(F)F
5. FC(F)(F)c1nc2ccccc2nc1N/N=C/c1ccc(Cl)cc1
6. Cn1nccc1NC(=O)Nc1ccc(OC(F)(F)F)cc1
7. COc1ccc(C(=O)Nc2ccccc2C(=O)N/N=C/c2ccc(O)c(OC)c2)cc1

2.2% (inactive)
51.5% (active)
4.32% (inactive)
-6.8% (inactive)
2.4% (inactive)
8.73% (inactive)
33.6% (active)

// each listed compound needs a value for inhibition
1. CC[N+](C)(CC)CCC[n+]1c(-c2ccccc2)c2cc(N)ccc2c2ccc(N)cc21
2. Cc1nc2ccccc2nc1N/N=C/c1ccc(O)cc1O

54.4% (active)
36.9% (active)
